All figures here come from patent US20180244785A1.

- testSystem: T1, 6His-Fc-FGFR1c (human, UniProt P11362 141-376)
- T1 construct: not shown: 6His tag and Fc as named in '6His-Fc-FGFR'
- T1 sequence: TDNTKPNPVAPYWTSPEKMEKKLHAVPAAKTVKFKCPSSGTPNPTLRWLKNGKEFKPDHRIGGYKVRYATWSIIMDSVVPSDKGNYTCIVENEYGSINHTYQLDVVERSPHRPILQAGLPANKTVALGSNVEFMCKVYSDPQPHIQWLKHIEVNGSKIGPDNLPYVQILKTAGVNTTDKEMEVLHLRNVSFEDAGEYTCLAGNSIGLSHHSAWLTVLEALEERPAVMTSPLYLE
- protocolNotes: competition ELISA, blocks 6His-Fc-FGFR1c binding to coated FGF2
pIC50: −log10 of the molar value.

| binder | pIC50 |
| --- | --- |
| Ab92 (antibody, human IgG2, kappa, V domains shown, format in the assays not spelled out) VH: EVQLLESGGGVVQPGRSLRLSCAASGFTFSSYAMHWVRQAPGKGLEWVAVISYDGSNKYYADSVKGRFTISRDNSKNTLSLQMNSLRVEDTAIYYCVRGAGHGFPTGPDGFDIWGQGTMVTVSS VL: DIVMTQTPLSLSVTPGQPASISCRSSRSLLHSDGKTYVYWYVQKSGQPPQLLIYELSNRFSGVPDRFSGSGSRTDFTLKISRVEAEDVGVYYCMQYVEAPLTFGGGTKVEIKR | 8.38 |
| Ab16 (antibody, human IgG2, kappa, V domains shown, format in the assays not spelled out) VH: EVQLLESGGGVVQPGRSLRLSCAASGFTFSSYAMHWVRQAPGKGLEWVAVISYDGSNKYYADSVKGRFTISRDNSKNTLSLQMNSLRVEDTAIYYCVRGAGRGYTRGPDGFDIWGQGTMVTVSS VL: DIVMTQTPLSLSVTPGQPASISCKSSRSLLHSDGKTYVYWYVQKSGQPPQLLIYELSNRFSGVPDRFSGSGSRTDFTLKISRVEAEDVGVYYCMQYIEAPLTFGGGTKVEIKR | 8.20 |
| Ab41 (antibody, human IgG2, kappa, V domains shown, format in the assays not spelled out) VH: EVQLLESGGGVVQPGRSLRLSCAASGFTFSSYAMHWVRQAPGKGLEWVAVISYDGSNKYYADSVKGRFTISRDNSKNTLSLQMNSLRVEDTAIYYCVRGAGLGFPYGPDGFDIWGQGTMVTVSS VL: DIVMTQTPLSLSVTPGQPASISCRSSRSLLHSDGKTYVYWYVQKSGQPPQLLIYELSNRFSGVPDRFSGSGSRTDFTLKISRVEAEDVGVYYCMQYIEAPLTFGGGTKVEIKR | 8.45 |
| Ab51 (antibody, human IgG2, kappa, V domains shown, format in the assays not spelled out) VH: EVQLLESGGGVVQPGRSLRLSCAASGFTFSSYAMHWVRQAPGKGLEWVAVISYDGSNKYYADSVKGRFTISRDNSKNTLSLQMNSLRVEDTAIYYCVRGAGRGFPYGPDGFDIWGQGTMVTVSS VL: DIVMTQTPLSLSVTPGQPASISCRSSRSLLHSDGKTYVYWYVQKSGQPPQLLIYELSNRFSGVPDRFSGSGSRTDFTLKISRVEAEDVGVYYCMQYIEAPLTFGGGTKVEIKR | 8.41 |
| Ab25 (antibody, human IgG2, kappa, V domains shown, format in the assays not spelled out) VH: EVQLLESGGGVVQPGRSLRLSCAASGFTFSSYAMHWVRQAPGKGLEWVAVISYDGSNKYYADSVKGRFTISRDNSKNTLSLQMNSLRVEDTAIYYCVRGAGLGFTYGPDGFDIWGQGTMVTVSS VL: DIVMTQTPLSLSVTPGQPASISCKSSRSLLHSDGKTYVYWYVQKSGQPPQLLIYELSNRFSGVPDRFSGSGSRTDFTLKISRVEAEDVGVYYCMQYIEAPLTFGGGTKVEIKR | 8.31 |
